biological target: N-terminally truncated (Δ27) Abl kinase (Homo sapiens); assay: Abl Kinase Activity Inhibition Assay (coupled enzyme system); type: biochemical; settings: 110 μM ATP, 21 nM Abl kinase, 30° C.; read-out: inhibit Abl kinase, Ki value
Sequence (P00519 whole entry, stated change not applied, the tested form may be a part): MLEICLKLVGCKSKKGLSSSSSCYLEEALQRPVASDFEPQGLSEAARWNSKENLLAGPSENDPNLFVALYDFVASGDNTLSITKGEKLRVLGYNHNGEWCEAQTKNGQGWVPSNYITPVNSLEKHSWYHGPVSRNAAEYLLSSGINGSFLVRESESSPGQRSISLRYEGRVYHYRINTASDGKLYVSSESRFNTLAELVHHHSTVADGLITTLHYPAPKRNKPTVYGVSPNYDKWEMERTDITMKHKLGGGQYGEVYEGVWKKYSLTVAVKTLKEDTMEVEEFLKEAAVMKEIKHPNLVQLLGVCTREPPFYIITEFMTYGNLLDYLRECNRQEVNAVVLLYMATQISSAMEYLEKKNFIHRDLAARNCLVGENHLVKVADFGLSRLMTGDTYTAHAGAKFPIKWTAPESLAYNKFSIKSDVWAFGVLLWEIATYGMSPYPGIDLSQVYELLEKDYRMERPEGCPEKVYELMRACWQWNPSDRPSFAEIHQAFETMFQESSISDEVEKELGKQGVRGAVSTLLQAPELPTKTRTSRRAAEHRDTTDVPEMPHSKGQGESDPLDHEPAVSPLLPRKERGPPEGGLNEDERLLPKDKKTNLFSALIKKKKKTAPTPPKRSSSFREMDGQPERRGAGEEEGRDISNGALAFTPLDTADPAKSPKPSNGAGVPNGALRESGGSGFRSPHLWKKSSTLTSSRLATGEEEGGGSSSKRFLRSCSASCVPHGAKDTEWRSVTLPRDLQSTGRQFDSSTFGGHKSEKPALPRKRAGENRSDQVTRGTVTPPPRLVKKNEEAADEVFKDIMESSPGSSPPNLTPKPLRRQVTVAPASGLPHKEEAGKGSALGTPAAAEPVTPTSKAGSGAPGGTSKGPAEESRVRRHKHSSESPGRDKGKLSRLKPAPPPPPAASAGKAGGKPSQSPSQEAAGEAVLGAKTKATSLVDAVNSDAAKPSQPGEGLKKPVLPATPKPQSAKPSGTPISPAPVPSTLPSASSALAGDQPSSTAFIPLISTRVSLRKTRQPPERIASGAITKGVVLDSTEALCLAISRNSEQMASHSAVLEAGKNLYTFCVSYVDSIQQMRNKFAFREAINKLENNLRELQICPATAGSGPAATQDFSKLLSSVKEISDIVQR
pKi: −log10 of the molar value.
measurementLabel: pKi

Per the record, Cc1cc(Nc2cc(N3CCN(C4CCN(C)CC4)CC3)nc(Sc3cc(F)c4nc(C)ccc4c3)n2)[nH]n1 [Compound I-13] has pKi of > 7.60
